Below, each of the compounds is paired with its reported survival value.
- Test system: DeltatarO mutant
- experiment.notes: S. aureus survival, RN4220 and DeltatarO strains – OD600, teichoic acid synthesis inhibitors, primary screen (AID 463173)
- experimental.setup: S. aureus RN4220 wild type/DeltatarO growth, OD600, 18 h, hits give low values, screened at 18.75 µg/mL (by protocol)
The whole screen tested about 52,000 compounds, of which about 4,300 (8.3%) were called active. Many of the other results were omitted from the sample, so actives are more common in it than they were.
experimental.endpoint: survival (%)

1. CCc1cccc(C)c1NC(=O)Cn1ccn(-c2ccc(F)cc2)c(=O)c1=O: 52
2. CCC(=O)N1CCc2cc(S(=O)(=O)NC(CC(C)C)C(=O)NCc3cccc(OC)c3)ccc21 (stereo not drawn): 73
3. CCc1cccc(C)c1NC(=O)CN1CCCN(Cc2ccc(C)cc2)S1(=O)=O: 8

====

- Tested on: DeltatarO mutant
- experiment.notes: S. aureus survival, RN4220 and DeltatarO strains – OD600, teichoic acid synthesis inhibitors, primary screen (AID 463173)
- experimental.setup: S. aureus RN4220 wild type/DeltatarO growth, OD600, 18 h, hits give low values, screened at 18.75 µg/mL (by protocol)
Hit rate of the full screen: of about 52,000 compounds, about 4,300 (8.3%) were called active. Shown is part of a subset that was picked to be rich in actives.
Below, each of the compounds is paired with its reported survival value.
experimental.endpoint: survival (%)

1) COc1cc(C2c3c(-c4ccccc4O)n[nH]c3C(=O)N2Cc2ccncc2)ccc1O (stereo not drawn): 90
2) O=C(c1cccn1-c1nnc(N2CCCCC2)s1)N1CCN(c2ccc(Cl)cc2)CC1: 69
3) CCOC(=O)c1ccc2c(c1)N(Cc1ccc(F)cc1Cl)C(=O)c1ccccc1S2(=O)=O: 90

====

Below, each of the compounds is paired with its reported survival value.
- System: DeltatarO mutant
- experiment.notes: S. aureus survival, RN4220 and DeltatarO strains – OD600, teichoic acid synthesis inhibitors, primary screen (AID 463173)
- experimental.setup: S. aureus RN4220 wild type/DeltatarO growth, OD600, 18 h, hits give low values, screened at 18.75 µg/mL (by protocol)
Among all 52,000 compounds or so, about 4,300 (8.3%) were called active. The sample as a whole holds a higher share of actives than the screen did.
experimental.endpoint: survival (%)

1. CCc1ccc(-c2cn3c(n2)sc2cc(C(=O)NCC(C)c4ccccc4)ccc23)cc1 (centres undefined): 69
2. CNS(=O)(=O)c1cc(-c2nnc(Nc3cc(C)ccc3C)c3ccccc23)ccc1C: 69
3. CCc1nn(CC(=O)N2CCN(c3cccc(OC)c3)CC2)c(=O)c2cc3occc3n12: 91
4. COc1ccc2c(CNC3CCC(C)CC3)c(C(=O)O)n(Cc3ccc(F)cc3)c2c1 (centres undefined): 70

====

- Test system: DeltatarO mutant
- experiment.notes: S. aureus survival, RN4220 and DeltatarO strains – OD600, teichoic acid synthesis inhibitors, primary screen (AID 463173)
- experimental.setup: S. aureus RN4220 wild type/DeltatarO growth, OD600, 18 h, hits give low values, screened at 18.75 µg/mL (by protocol)
In all, about 52,000 compounds went through this assay and about 4,300 (8.3%) were called active. The sample holds actives, similar compounds and a random draw of the others, so the mix is not that of the screen.
experimental.endpoint: survival

1. Cc1c(Cl)cccc1NC(=O)Cn1nnc2sc3c(c2c1=O)CCCC3: 75% (inactive)
2. C=CCn1c(C)c(C=C(C#N)C#N)c2ccccc21: 99% (inactive)
3. CCOCCCn1c(SCC(=O)Nc2cc(C)ccc2C)nc2c(oc3ccccc32)c1=O: 90% (inactive)
4. Cc1ccc(Cl)cc1N1CCN(C(=O)C2CCCN(S(=O)(=O)c3ccc(Br)s3)C2)CC1 (centres undefined): 113% (inactive)
5. COc1ccc(-n2c(=O)c3ccccc3n(Cc3ccccc3Cl)c2=O)cc1: 110% (inactive)
6. CCCCn1c(=N)c(C(=O)NC2CCCCC2)cc2c(=O)n3cccc(C)c3nc21: 62% (inactive)
7. COc1ccc(OCc2nc3ccccc3n2Cc2ccccc2Cl)cc1: 39% (active)
8. Cc1cc2nc(-c3ccc(OCc4ccccc4Cl)cc3)cc(C(F)(F)F)n2n1: 25% (active)
9. Cc1ccc(-n2ncc(C(=O)NCc3ccccc3C)c2-n2cccc2)cc1: 74% (inactive)
10. Cc1ccc(C)c(NC(=O)CSc2nc3nccnc3c(=O)n2CCc2c[nH]c3ccccc23)c1: 37% (active)
11. Cc1ccccc1Cn1c(COc2ccc(Cl)cc2)nc2ccccc21: 114% (inactive)
12. COc1ccc(-c2cc3nc(-c4ccccc4)cc(C(F)(F)F)n3n2)cc1: 58% (inactive)
13. Cc1ccc(C)c(NC(=O)Cn2c(SCC(=O)NCc3ccccc3)nc3ccccc32)c1: 101% (inactive)
14. CCOc1ccc(NC(=O)c2cnn(-c3ccccc3)c2-n2cccc2)cc1: 71% (inactive)
15. CCOc1cc(C(Nc2cc(C)ccn2)c2ccc3cccnc3c2O)ccc1OC (centres undefined): 146% (inactive)
16. Cc1ccccc1NC(=O)NCCc1c[nH]c2ccccc12: 47% (inactive)
17. Cc1cc2nc(-c3ccc(OCc4ccccc4C)cc3)cc(C(F)(F)F)n2n1: 13% (active)
18. Cc1ccc(-c2cc(C(F)(F)F)n3nc(-c4ccc(Cl)cc4)cc3n2)cc1: 51% (inactive)
19. CCOC(=O)c1cccc(NC(=O)c2cnn(-c3ccccc3)c2-n2cccc2)c1: 80% (inactive)

====

- System: DeltatarO mutant
- experiment.notes: S. aureus survival, RN4220 and DeltatarO strains – OD600, teichoic acid synthesis inhibitors, primary screen (AID 463173)
- experimental.setup: S. aureus RN4220 wild type/DeltatarO growth, OD600, 18 h, hits give low values, screened at 18.75 µg/mL (by protocol)
Among all 52,000 compounds or so, about 4,300 (8.3%) were called active. The sample holds actives, similar compounds and a random draw of the others, so the mix is not that of the screen.
Below, each of the compounds is paired with its reported survival value.
experimental.endpoint: survival

1. Cc1ccc(CN2CCc3nc(N4CCN(c5ncccn5)CC4)ncc3C2)cc1: 117% (inactive)
2. COc1ccccc1CN1C(=O)CN(C2CCCCCC2)C(=O)C1c1ccc(C)cc1 (centres undefined): 88% (inactive)
3. CCC1CN(C(=O)N2CCC(C(=O)NCc3ccc(C)o3)CC2)c2ccccc2O1 (centres undefined): 87% (inactive)
4. O=C(NCc1cccc(F)c1)C1CCN(c2nn3cc(-c4ccc(F)cc4)nc3s2)CC1: 87% (inactive)
5. CCC(C(=O)OC(C)C)n1cnc2sc3c(c2c1=O)CCC(C)C3 (centres undefined): 93% (inactive)
6. CCOc1ccc(NCc2cccn2-c2nnc(N3CCC(C(=O)NCc4cccc(OC)c4)CC3)s2)cc1: 80% (inactive)
7. CC(=O)Nc1c(C)nn(-c2ccccc2)c1N1CCC(C(=O)NCc2cccc(F)c2)CC1: 6% (active)
8. Cc1cccc(CNC(=O)C2CCN(c3nn4cc(-c5ccc(F)cc5)nc4s3)CC2)c1: 47% (active)
9. Cc1ccc(-c2nc(NC(=O)CSc3ncnc4sc5c(c34)CCC(C)C5)ns2)cc1 (centres undefined): 69% (inactive)
10. CC1=C(C(=O)Nc2ccc(Cl)cc2)C(CC(C)C)n2nc(SCc3ccccc3C)nc2N1 (centres undefined): 127% (inactive)
11. O=S(=O)(Nc1ccc(O)cc1)c1cccs1: 83% (inactive)
12. CCCCCOC(=O)CSc1ncnc2c1sc1nc(N3CCOCC3)c3c(c12)CCCC3: 71% (inactive)
13. Cc1ccc(Cl)cc1N1CCN(C(=O)C2CCN(S(=O)(=O)c3cn(C)cn3)CC2)CC1: 98% (inactive)
14. Cc1ccc(NC(=O)CCNS(=O)(=O)c2cccs2)cc1F: 63% (inactive)

====

Below, each of the compounds is paired with its reported survival value.
- Test system: DeltatarO mutant
- experiment.notes: S. aureus survival, RN4220 and DeltatarO strains – OD600, teichoic acid synthesis inhibitors, primary screen (AID 463173)
- experimental.setup: S. aureus RN4220 wild type/DeltatarO growth, OD600, 18 h, hits give low values, screened at 18.75 µg/mL (by protocol)
About 4,300 (8.3%) of roughly 52,000 compounds were called active. Many of the other results were omitted from the sample, so actives are more common in it than they were.
experimental.endpoint: survival (%)

1. O=C(NCCc1ccccc1)c1ccc2c(c1)N(Cc1ccc(Cl)cc1)C(=O)CS2: 144
2. Cc1oc(-c2ccc(C(=O)NCCc3ccc(Cl)cc3)cc2)nc1CSc1ccccc1: 83
3. O=c1ccc2cc(S(=O)(=O)NCc3ccc(Cl)cc3)ccc2[nH]1: 91
4. CCOC(=O)c1cnn(-c2ccc(C(=O)Nc3ccc(OC(F)(F)F)cc3)cc2)c1N: 124
5. Cc1cc(-c2ccccc2)nc2cc(C(N)=O)nn12: 71
6. O=C1CC(c2ccccc2)Cc2[nH]c(=O)c(C(=O)Nc3ccc(F)cc3)cc21 (stereo not given): 101
7. Cc1cc2cc(CN(CC3COCCO3)S(=O)(=O)c3ccc(F)cc3)c(=O)[nH]c2cc1C (stereo not given): 103
8. O=c1cc(-c2ccccc2)n2c(SCc3cccc([N+](=O)[O-])c3)nnc2[nH]1: 69
9. O=C(CC1(O)C(=O)N(CCc2ccccc2)c2ccc(Br)cc21)c1ccc(F)cc1 (stereo not given): 55
10. COc1ccc(CNC(=O)c2ccc(-c3nc(CSc4ccc(C)cc4)c(C)o3)cc2)c(OC)c1: 6
11. COc1cc(C2C(C(=O)Nc3ccccc3C)=C(C)Nc3nc(SCc4cc(C)ccc4C)nn32)ccc1O (stereo not given): 105
12. COc1cccc(CNC(=O)c2ccc3c(c2)nc2n3CCC(C)C2)c1 (stereo not given): 72
13. COc1ccc(NC(=O)C(C)Sc2nc(C)cc(=O)[nH]2)cc1 (stereo not given): 101
14. COC(=O)c1cnn(-c2ccc(C(=O)Nc3ccc(C(C)=O)cc3)cc2)c1N: 63
15. N#Cc1c(NC(=O)C2CC(=O)NN2Cc2ccccc2)sc2c1CCCC2 (stereo not given): 82
16. CCc1ccc(CNC(=O)c2ccc(-c3nc(CSc4ccc(C)cc4)c(C)o3)cc2)cc1: 67
17. Cc1ccc(-n2nc3c(=O)n(CCCC(=O)NCCc4ccccc4Cl)nc(C)c3c2C)cc1: 91
18. CCC(=O)NC1CCNCC1: 76
19. COc1ccc(-c2cc(C(=O)NCCc3ccc(Cl)cc3)[nH]n2)cc1: 72
20. CCc1ccccc1NC(=O)Cn1c(=O)c2cccn2c2ccc(F)cc21: 83
21. O=C(NCCc1ccc(Cl)cc1)c1ccc2c(c1)N(Cc1c(F)cccc1Cl)C(=O)CS2: 44
22. O=C(NCCc1ccccc1)c1ccc2c(c1)N(Cc1ccc(F)cc1Cl)C(=O)CS2: 55
23. CCc1ccc(C(=O)c2cn(CC(=O)Nc3ccc(C)c(C)c3)c3ccccc3c2=O)cc1: 108
24. COc1ccccc1N1CCN(c2ncnc3c2cnn3C)CC1: 83
25. COc1ccc(CNC(=O)c2ccc(-c3nc(CSc4ccccc4)c(C)o3)cc2)c(OC)c1: 85
26. O=C(NCCc1ccccc1)c1ccc2c(c1)N(Cc1c(F)cccc1Cl)C(=O)CS2: 54
27. O=C(NCCc1ccc(Cl)cc1)c1ccc2c(c1)N(Cc1ccccc1)C(=O)CS2: 25
28. CCOc1ccc(C(=O)N2CCC(c3ccncc3)CC2)cc1: 94
29. CC(NC(=O)c1ccc2c(c1)N(Cc1ccc(Cl)cc1)C(=O)c1ccccc1S2=O)c1ccccc1 (stereo not given): 73
30. COc1cccc(CSc2nc(-c3ccccc3OC)nc3c2Cc2c(CO)cnc(C)c2O3)c1: 57
